MEASURE: melting point

Sample answers from the record:
[[record]]
mol_smiles = "N#Cc1cccc(COc2cc3n(n2)CCN(C(=O)c2ccccc2)C3)c1"
result = "150.4 °C"

[[record]]
mol_smiles = "Cc1ccc(C(=O)N2CCn3nc(OCc4ccccc4)cc3C2)cn1"
result = "104.6 °C"

[[record]]
mol_smiles = "O=C(c1cc(F)cc(F)c1)N1CCn2nc(OCc3ccccc3)cc2C1"
result = "165.2 °C"

[[record]]
mol_smiles = "O=C(c1ccc(F)cc1)N1CCCn2nc(OCc3ccncc3)cc2C1"
result = "> 300 °C"

[[record]]
mol_smiles = "COc1ccc(C(=O)N2CCn3nc(OCc4ccccc4)cc3C2)cn1"
result = "138.6 °C"


stdin: Need melting point, item O=C(c1cccc(Cl)c1)N1CCn2nc(OCc3ccc(F)cc3)cc2C1
stdout: 125.2 °C

stdin: // query melting point value for entry N#Cc1cccc(COc2cc3n(n2)CCN(C(=O)c2cc(F)cc(F)c2)C3)c1
stdout: 124 °C

stdin: Which melting point is listed for O=C(c1cc(F)cc(F)c1)N1CCn2nc(OCc3cccc(F)c3)cc2C1 ?
stdout: 154.7 °C

stdin: Data request, read-out melting point, for N#Cc1cc(F)cc(C(=O)N2CCn3nc(OCc4ccccc4)cc3C2)c1
stdout: 117.6 °C

Source listed as patent US9029366B2.
